study-target: SHP2-C SH2;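 further: peptide library displayed on the E. coli surface as eCPX fusions, selected cells deep-sequenced, score is each peptide's frequency after selection divided by its frequency in the input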
method-notes: SH2 binding enrichment of the phosphorylated peptide, bacterial display (enrichment ratio); higher = better substrate or ligand; peptides without Tyr show the background
Readings of SH2 binding enrichment for the listed sequences

Recorded SH2 binding enrichment for QKFMAYLSQGW [HLCS_Y236_G241W] on SHP2-C SH2 was 1.5

Entry SQGRQYQELPR [KCNH2_Y1009_R1005Q] , tested on SHP2-C SH2, has a reported SH2 binding enrichment of 0.545

Bench note, SHP2-C SH2: entry TDDMRYPMKSE [TGDS_Y302_N298D] , its SH2 binding enrichment = 0.626

For the sequence NRSSLYLVAGP [KIAA1614_Y1083] , the measured SH2 binding enrichment on SHP2-C SH2 was 0.92

Reported SH2 binding enrichment (SHP2-C SH2) for entry AAALAYGLDKS [HSPA9_Y230] is 0.637
